System: indian jointvetch
test: Herbicidal activity test against upland field weeds (foliar treatment test)
Type: in vivo
condition-set: 50 g ai/ha, scale 0-100
Lab note: cut-off is 70%. Strictly less in pest or weed control at 50 g/ha is condition met. Exactly 70% or more is condition not met.

* CCCn1nnnc1NC(=O)c1ccc(C(F)(F)F)nc1COCc1nnn(CC)n1 [Compound No. 2-89] | condition met
* Cn1nnc(CS(=O)(=O)Cc2nc(C(F)(F)F)ccc2C(=O)Nc2nnnn2C)n1 [Compound No. 2-105] | condition not met

In the record for CCn1nnnc1NC(=O)c1ccc(C(F)(F)F)nc1COCc1nc(C(F)(F)F)n(C)n1 [Compound No. 2-119] , is pest or weed control at 50 g/ha less than 70%?
condition met

In the record for C=CCn1nnnc1NC(=O)c1ccc(C(F)(F)F)nc1COCc1nc(C(F)(F)F)n(C)n1 [Compound No. 2-121] , is pest or weed control at 50 g/ha less than 70%?
condition met

In the record for CON(Cc1nnn(C)n1)Cc1nc(C(F)F)ccc1C(=O)Nc1nnnn1C [Compound No. 2-86] , is pest or weed control at 50 g/ha less than 70%?
condition not met

In the record for Cn1nnc(CSCc2nc(C(F)(F)F)ccc2C(=O)Nc2nnnn2C)n1 [Compound No. 2-102] , is pest or weed control at 50 g/ha less than 70%?
condition not met

In the record for Cn1nnnc1NC(=O)c1ccc(C(F)(F)F)nc1COCc1nc(OCC(F)(F)F)n(C)n1 [Compound No. 2-130] , is pest or weed control at 50 g/ha less than 70%?
condition met

In the record for Cn1nnc(CSCc2nc(C(F)(F)F)ccc2C(=S)Nc2nnnn2C)n1 [Compound No. 2-107] , is pest or weed control at 50 g/ha less than 70%?
condition not met

In the record for CCON(Cc1nnn(C)n1)c1nc(C(F)(F)F)ccc1C(=O)Nc1nnnn1C [Compound No. 2-31] , is pest or weed control at 50 g/ha less than 70%?
condition met

In the record for Cn1ncnc1COCc1nc(C(F)(F)F)ccc1C(=O)Nc1nnnn1C [Compound No. 1-102] , is pest or weed control at 50 g/ha less than 70%?
condition not met

In the record for CCCn1nnnc1NC(=O)c1ccc(C(F)(F)F)nc1COCc1ncn(C)n1 [Compound No. 2-114] , is pest or weed control at 50 g/ha less than 70%?
condition met

* * *

Test system: wheat
test: Phytotoxicity test for upland field crops (foliar treatment test)
Assay type: in vivo
condition-set: 100 g ai/ha, Wheat (7 days after treatment)
measured-metric: Foliar treatment phytotoxicity, Wheat
Number, no unit, nothing else.

* COC(=O)OC(C)N(C(=O)c1ccc(C(F)(F)F)nc1COCc1nnn(C)n1)c1nnnn1C (stereo not drawn) [Compound No. 4-4] | 2
* C=CCn1nnnc1NC(=O)c1ccc(C(F)(F)F)nc1COCc1nnn(CC)n1 [Compound No. 2-90] | 0

# evaluate next
GET /values?readout=Foliar treatment phytotoxicity, Wheat&item= Cn1nnc(COCc2nc(C(F)(F)C(F)(F)F)ccc2C(=O)Nc2nnnn2C)n1 [Compound No. 2-81]
0

* * *

Soil treatment herbicidal activity, Crabgrass by entry:
Tested on: crabgrass
test: Herbicidal activity test against upland field weeds (soil treatment test)
Type: in vivo
Design: key: 0 (no control); 100 (complete control)
condition-set: 50 g ai/ha, scale 0 (no control) to 100 (complete control)
Number, no unit, nothing else.

Known results for molecules:
• Cn1nnc(CSCc2nc(C(F)F)ccc2C(=O)N(C(=O)c2ccccc2)c2nnnn2C)n1 = 0
• Cn1ncnc1COc1nc(C(F)(F)F)ccc1C(=O)Nc1nnnn1C = 100
• CC(C)OC(=O)OC(C)N(C(=O)c1ccc(C(F)(F)F)nc1COCc1nnn(C)n1)c1nnnn1C (stereo not shown) = 100

GET /values?readout=Soil treatment herbicidal activity, Crabgrass&item= `CCc1cc(C(=O)Nc2nnnn2C)c(OCc2nnnn2C)nc1C(F)(F)F`
0

* * *

Test system: bindweed
test: Herbicidal activity test against upland field weeds (soil treatment test)
Assay type: in vivo
condition-set: 50 g ai/ha, scale 0 (no control) to 100 (complete control)
measured-metric: Soil treatment herbicidal activity, Bindweed
Number, no unit, nothing else.

Known results for molecules:
- CC(C)OC(=O)OC(C)N(C(=O)c1ccc(C(F)(F)F)nc1COCc1nnn(C)n1)c1nnnn1C (stereo not drawn): 98
- C#CCN(Cc1nnn(C)n1)c1nc(C(F)(F)F)ccc1C(=O)Nc1nnnn1C: 0
- CC(OC(=O)OC1CCCCC1)N(C(=O)c1ccc(C(F)(F)F)nc1COCc1nnn(C)n1)c1nnnn1C (stereo not drawn): 0
- Cn1nnnc1NC(=O)c1ccc(C(F)(F)F)nc1OCc1nnnn1C(F)F: 0
- Cn1cnc(COCc2nc(C(F)F)ccc2C(=O)Nc2nnnn2C)n1: 35

GET /values?readout=Soil treatment herbicidal activity, Bindweed&item= `Cn1nnnc1COCc1nc(C(F)(F)F)ccc1C(=O)Nc1nnnn1C`
0

GET /values?readout=Soil treatment herbicidal activity, Bindweed&item= `Cn1nnnc1COc1nc(C(F)(F)F)ccc1C(=S)Nc1nnnn1C`
0

GET /values?readout=Soil treatment herbicidal activity, Bindweed&item= COC(=O)OC(C)N(C(=O)c1ccc(C(F)(F)F)nc1CSCc1nnn(C)n1)c1nnnn1C (stereo not drawn)
0

GET /values?readout=Soil treatment herbicidal activity, Bindweed&item= `Cn1nnc(COc2nc(C(F)(F)F)ccc2C(=O)Nc2nnnn2C)n1`
0

* * *

System: wheat
test: Phytotoxicity test for upland field crops (foliar treatment test)
Format: in vivo
condition-set: 100 g ai/ha, Wheat (7 days after treatment)
Foliar treatment phytotoxicity, Wheat by entry:
Number, no unit, nothing else.

Known results for molecules:
- CCOC(=O)OC(C)N(C(=O)c1ccc(C(F)(F)F)nc1COCc1nnn(C)n1)c1nnnn1C (centres unmarked): 2
- C#CCn1nnnc1NC(=O)c1ccc(C(F)(F)F)nc1COCc1nc(C(F)(F)F)n(C)n1: 0
- CCCn1nnnc1NC(=O)c1ccc(C(F)(F)F)nc1COCc1ncn(C)n1: 2
- Cn1nnc(CSCc2nc(C(F)(F)F)ccc2C(=O)N(c2nnnn2C)S(C)(=O)=O)n1: 0
- Cn1nnnc1COc1nc(C(F)(F)F)ccc1C(=O)Nc1nnnn1C: 3
- Cn1nc(COCc2nc(C(F)(F)F)ccc2C(=O)Nc2nnnn2C)nc1Cl: 0
- Cn1nc(COCc2nc(C(F)(F)F)ccc2C(=O)Nc2nnnn2C)nc1CF: 0

wheat / Foliar treatment phytotoxicity, Wheat / `Cn1ncnc1COc1nc(C(F)(F)F)ccc1C(=O)Nc1nnnn1C` : value?
0

* * *

System: barnyard grass
test: Herbicidal activity test against upland field weeds (foliar treatment test)
Type: in vivo
condition-set: Echinochloa crus-galli, 50 g ai/ha, scale 0-100
measured-metric: pest or weed control at 50 g/ha (%)
Report only the number, with the unit % understood.

Known results for compounds:
• Cn1nnnc1NC(=O)c1ccc(C(F)(F)F)nc1OCc1nnnn1C(F)F = 95
• CSc1nc(COCc2nc(C(F)(F)F)ccc2C(=O)Nc2nnnn2C)nn1C = 98
• Cn1nnc(COCc2nc(C(F)(F)F)ccc2C(=S)Nc2nnnn2C)n1 = 80
• C#CCN(Cc1nnn(C)n1)c1nc(C(F)(F)F)ccc1C(=O)Nc1nnnn1C = 70
• CON(Cc1nc(C(F)(F)F)ccc1C(=O)Nc1nnnn1C)Cc1ncnn1C = 98
• Cn1nnc(COc2nc(C(F)(F)F)ccc2C(=O)Nc2nnnn2C)n1 = 98
• Cn1nnc(CSCc2nc(C(F)(F)F)ccc2C(=O)N(c2nnnn2C)S(C)(=O)=O)n1 = 20

# evaluate next
barnyard grass / pest or weed control at 50 g/ha / `Cn1nc(COCc2nc(C(F)(F)F)ccc2C(=O)Nc2nnnn2C)nc1CF` : value?
80

* * *

Tested on: wheat
test: Phytotoxicity test for upland field crops (foliar treatment test)
Assay type: in vivo
condition-set: 100 g ai/ha, Wheat (7 days after treatment)
measured-metric: Foliar treatment phytotoxicity, Wheat
Number, no unit, nothing else.

Known results for compounds:
- Cn1nnc(COCc2nc(C(F)(F)F)ccc2C(=O)N(C(=O)c2ccccc2)c2nnnn2C)n1 [Compound No. 2-68]: 1
- COc1nc(COCc2nc(C(F)(F)F)ccc2C(=O)Nc2nnnn2C)nn1C [Compound No. 2-129]: 2

# evaluate next
GET /values?readout=Foliar treatment phytotoxicity, Wheat&item= Cc1nc(COCc2nc(C(F)(F)F)ccc2C(=O)Nc2nnnn2C)nn1C [Compound No. 2-116]
0

* * *

Tested on: wheat
test: Phytotoxicity test for field crops (soil treatment test)
Assay type: in vivo
Parameters: key: 0 (no harm); 9 (complete withered)
condition-set: 50 g ai/ha; Wheat (20 days after treatment)
Procedure: Experimental Example 4: Phytotoxicity Test for Field Crops (Soil Treatment Test) Soil treatment was performed for sown crops and weeds in a square plastic pot having a surface area of 50 cm^2 filled with sterilized horticultural soil (pH 6.1, organic material 1.0%, clay 21%, silt 17%, sand 52%). As a fertilizer per pot, 0.5 g of horticultural mixed fertilizer (N:P:K=17:21:17) was treated by mixing with soil. Five kinds of crops such as rice, wheat, corn, soybean, and cotton were sown in each pot. […]
measured-metric: Soil treatment phytotoxicity, Wheat
Number, no unit, nothing else.

GET /values?readout=Soil treatment phytotoxicity, Wheat&item= `Cn1nnnc1NC(=O)c1ccc(C(F)(F)F)nc1OCc1nnnn1C(F)F`
0
